Taken from patent US20260217732A1.

# procedureText: in vivo
# statedConditions: female, CD1, mouse, iv, 2 mg/kg
observationType: AUC(0-t) (ng·h/mL)

Field: example entries. Status: answers known.
INSERT INTO results (compound, units, recordedmeasurement) VALUES
  ('CCc1c(N2CCN(C(=O)c3ncccc3O)CC2)c(=O)n2nc(-c3ccc(CO)s3)nc2n1CC(=O)Nc1ccc(C(F)(F)F)cc1Cl', 'ng·h/mL', 1230),
  ('CCc1c(N2CCN(C(=O)c3ncnc(C)c3O)CC2)c(=O)n2nc(-c3cc4c(s3)COC4)nc2n1CC(=O)Nc1ccc(C(F)(F)F)c2ccoc12', 'ng·h/mL', 3150);

I: CCc1c(N2CCN(C(=O)c3ncnc(C)c3O)CC2)c(=O)n2nc(-c3cc4c(s3)COC4)nc2n1CC(=O)Nc1ccc(Br)c2ccoc12
II: CCc1c(N2CCN(C(=O)c3ncccc3O)CC2)c(=O)n2nc(-c3cccnc3)nc2n1CC(=O)Nc1ccc(C(F)(F)F)cc1C [A1, reference compound]
Request: Compare reported AUC(0-t) values for I and II . Which is lower? Label of pick, please.
Response: II

###

# Test system: HT-29 colorectal cancer cells
# procedureText: 2D antiproliferation on MSS HT-29 cells, CTG, 5 days
# Format: cell-based
# statedConditions: Homo sapiens, 120 h, HT-29 MSS
observationType: IC50

INSERT INTO results (compound, recordedmeasurement) VALUES
  ('CCc1c(N2CCN(C(=O)c3ncnc(C)c3O)CC2)c(=O)n2nc(-c3ccn4nccc4c3)nc2n1CC(=O)Nc1ccc(C(F)(F)F)cc1Cl [P37]', '> 10 µM'),
  ('CCc1c(N2CCN(C(=O)c3ncccc3O)CC2)c(=O)n2nc(-c3ccc(C(C)=O)s3)nc2n1CC(=O)Nc1ccc(C(F)(F)F)cc1Cl [P15]', '> 10 µM');

// switching to the query compound
Request: Need IC50 of CCc1c(N2CCN(C(=O)c3ncnc(C)c3O)CC2)c(=O)n2nc(-c3cc4cncnc4s3)nc2n1CC(=O)Nc1ccc(C(F)(F)F)cc1Cl [P42] , thanks.
Response: > 10 µM

###

# System: SW48 colorectal cancer cells
# procedureText: 2D antiproliferation on MSI-H SW48 cells, CTG, 5 days
# Format: cell-based
# statedConditions: Homo sapiens; SW48, 9.765625 nM; read-out: Test 1/Inhibition Rate
observationType: inhibition at 0.00976562 µM (%)
Write the value in % as a bare number.

INSERT INTO results (structuresmiles, observationtype, recordedmeasurement) VALUES
  ('CCc1c(N2CCN(C(=O)c3ncnc(C)c3O)CC2)c(=O)n2nc(-c3cc4c(s3)COC4)nc2n1CC(=O)Nc1ccc(Br)cc1Cl', 'inhibition at 0.00976562 µM', -8.85),
  ('CCc1c(N2CCN(C(=O)c3ncnc(C)c3O)CC2)c(=O)n2nc(-c3cc4c(s3)COC4)nc2n1CC(=O)Nc1ccc(C(F)(F)F)cc1Cl', 'inhibition at 0.00976562 µM', -0.534),
  ('CCc1c(N2CCN(C(=O)c3ncnc(C)c3O)CC2)c(=O)n2nc(-c3cc4cn[nH]c4s3)nc2n1CC(=O)Nc1ccc(C(F)(F)F)cc1Cl', 'inhibition at 0.00976562 µM', -1.53);

Request: # lookup: inhibition at 0.00976562 µM of "CCc1c(N2CCN(C(=O)c3ncnc(C)c3O)CC2)c(=O)n2nc(-c3cc4c(s3)COC4)nc2n1CC(=O)Nc1ccc(C(F)(F)F)cc1C"
Response: 17.4
